# Test system: A498
# measurementNotes: NCI tumour cell line growth inhibition, 48 h
Active and inactive are the calls of the source. No stated cut-off is given here; in the data, active = GI50 up to about 1.1 µM and inactive = higher.
// classify into active, inactive

{"compound": "CC(C)(C)C1CCC2c3c([nH]c4ccccc34)C3C(=O)N(c4cccc([N+](=O)[O-])c4)C(=O)C3C2C1 (stereo not given)", "classLabel": "inactive"}

## Task Hello, I am checking results. What call was entered for `Nc1ncnc2c1sc(=S)n2-c1ccccc1` ?
## Result inactive

----------
# Tested on: BT-549
# measurementNotes: NCI tumour cell line growth inhibition, 48 h
Active and inactive are the calls of the source. Cut-off read from the data, not from the text of the source: active = GI50 up to about 1.1 µM and inactive = higher.
Choose one outcome from this list and give only that: yes (1) (active), no (0) (inactive)

Sample answers from the record:
{"compound": "Cn1c(C(C#N)c2nc(Cl)ncc2Br)nc2ccccc21 (stereo not given)", "classLabel": "no (0)"}
{"compound": "OC1[C@H](O)CN(OCc2ccccc2)C[C@@H]1O (stereo not given in full)", "classLabel": "no (0)"}
{"compound": "Cc1ccnc(NC(NC(=O)c2ccccc2)(C(F)(F)F)C(F)(F)F)c1", "classLabel": "no (0)"}
{"compound": "N#Cc1ccc(-c2nc(C#N)c(N)o2)cc1", "classLabel": "no (0)"}
{"compound": "O=c1ccc2ccc(O)cc2o1", "classLabel": "no (0)"}
{"compound": "CC(C)(C)C1CCC2c3c([nH]c4ccccc34)C3C(=O)N(c4cccc([N+](=O)[O-])c4)C(=O)C3C2C1 (stereo not given)", "classLabel": "no (0)"}
{"compound": "N=C(N)N/N=C/c1c(-c2ccc([N+](=O)[O-])cc2)nc2sccn12", "classLabel": "no (0)"}
{"compound": "CN(C)CCN1Nc2c3ccccc3nc3c(C(=O)NCCCN(C)CCCNC(=O)c4ccc5c6c(c7ccccc7nc46)NN5CCN(C)C)ccc1c23", "classLabel": "yes (1)"}
{"compound": "Cc1noc(NC(=O)Nc2ccccc2F)c1C#N", "classLabel": "no (0)"}
{"compound": "CC(C)(C)OC(=O)C1C(=O)NC(=O)CC1CC(OCc1ccccc1)C(COCc1ccccc1)OCc1ccccc1 (stereo not given)", "classLabel": "no (0)"}

## Task How was CCC(C(=O)c1cccs1)C(O)(C(F)(F)F)C(F)(F)F (stereo not given) classified in this test?
## Result no (0)

----------
# Tested on: UACC-62
# measurementNotes: NCI tumour cell line growth inhibition, 48 h
Active and inactive are the calls of the source. Rule as the data show it: active = GI50 up to about 1.1 µM and inactive = higher.
Would you mind answering with one of these outcomes? true (1) (active), false (0) (inactive)

These recorded examples may help you get a feel for the data.
{"molecule": "O/N=N\\c1nc(-c2ccccn2)nc2ccccc12", "targetSystem": "UACC-62", "classLabel": "false (0)"}
{"molecule": "Cc1cn(C2CC(O)C(CO)C2C)c(=O)[nH]c1=O (stereo not given)", "targetSystem": "UACC-62", "classLabel": "false (0)"}

## Task # outcome recorded in this test, key = CC(=O)C1=C(C)N2C(=NC3=C(CCc4ccccc43)C2c2ccc(Cl)cc2)S1 (stereo not given)
## Result false (0)

## Task Please indicate how the test categorized `Cc1nnc2sc(-c3ccc(N)cc3)nn12` .
## Result false (0)

## Task Which outcome was assigned to `Cc1ccc(S(=O)(=O)c2ccsc2NC(=O)c2ccccc2)cc1` in this test?
## Result false (0)

## Task Hello, I am checking results. What call was entered for CN(C)CCCN1c2ccc(O)cc2Sc2ccc(Cl)cc21 [7-HYDROXYCHLORPROMAZINE] ?
## Result false (0)
